# system tested: PEG-3 (UniProt Q6IN02)
# Sequence (Q6IN02 whole entry, looked up): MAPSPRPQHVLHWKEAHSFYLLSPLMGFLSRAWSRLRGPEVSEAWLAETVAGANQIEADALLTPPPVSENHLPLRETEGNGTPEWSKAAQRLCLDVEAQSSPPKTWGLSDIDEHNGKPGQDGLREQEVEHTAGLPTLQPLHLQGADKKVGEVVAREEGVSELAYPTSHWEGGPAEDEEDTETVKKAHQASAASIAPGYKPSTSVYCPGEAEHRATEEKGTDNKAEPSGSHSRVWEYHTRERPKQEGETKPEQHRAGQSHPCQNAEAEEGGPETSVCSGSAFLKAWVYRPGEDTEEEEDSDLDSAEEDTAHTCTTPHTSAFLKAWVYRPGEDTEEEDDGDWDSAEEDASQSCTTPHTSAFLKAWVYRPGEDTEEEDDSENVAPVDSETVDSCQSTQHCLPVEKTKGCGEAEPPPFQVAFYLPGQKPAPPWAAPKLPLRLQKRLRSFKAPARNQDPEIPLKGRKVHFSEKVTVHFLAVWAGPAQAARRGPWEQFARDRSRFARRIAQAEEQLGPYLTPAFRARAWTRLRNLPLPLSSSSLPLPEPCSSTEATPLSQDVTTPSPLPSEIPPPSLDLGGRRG
# method description: Peg3 promoter luciferase inhibitors, potency, dose response, cell-based, HeLa, CREF/GAPDH counter-screen panel (AID 624167)
# condition parameters: HeLa PEG-Prom luciferase reporter, overnight, CREF/GAPDH counter-screens, mean of runs
The source made the active and inactive calls.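 The calls were made as follows: active = mean IC50 for reducing PEG3 promoter reporter signal at or below a set limit, with IC50 above the limit in both counter screens; inactive = the rest, including counter screen hits.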
Can you answer with just one of these options? Yes (active), No (inactive)

Study these solved cases before continuing.
compound: COc1cc2ccccc2cc1C(=O)N(CCN(C)C)c1nc2c(OC)ccc(OC)c2s1
class name: No
--
compound: O=Cc1cn(Cc2ccc(Br)cc2)c2ccccc12
class name: No
--
compound: OCC1OC(n2ccc3c(NO)ncnc32)C(O)C1O (stereo not given)
class name: Yes

Input line: Hi team, can someone confirm the assay call for CN(C)CCNc1ncnc2c1ncn2[C@H]1CN(Cc2ccc(-c3ccccc3)cc2)C[C@@H](CO)O1 ?
Output line: No

Input line: Each compound tested received a call. Report the one for COc1ccc(CN(C)C(=O)C(Cc2ccccc2)NC(=O)c2ccccc2)cc1F (stereo not given) .
Output line: No

* * *

# Tested on: PEG-3
# method description: Peg3 promoter luciferase inhibitors, potency, dose response, cell-based, HeLa, CREF/GAPDH counter-screen panel (AID 624167)
# condition parameters: HeLa PEG-Prom luciferase reporter, overnight, CREF/GAPDH counter-screens, run 1, dose range 1, individual replicate IC50 per panel
pIC50: −log10 of the molar value.
If the reported pIC50 equals or exceeds 5, assign 1. If not, assign -1.

Completed entries (count: 5):
compound: O=C(Nc1cccc(-c2cccc(Cl)c2)c1)C1CCN(C2CCC2)CC1
class name: -1

compound: CCCCNc1nc(=S)n(-c2ccccc2)c(C)c1C(C)=O
class name: -1

compound: NC(c1csc(Nc2nccc(C(F)(F)F)n2)n1)C1CCCCC1 (stereo not given)
class name: -1

compound: Cc1ccc(C(=O)N/C(=C\c2ccc(-c3cccc([N+](=O)[O-])c3)o2)C(=O)NCCCN(C)C)cc1
class name: -1

compound: CC(C)(C)n1nnnc1C(CCc1ccccc1)N1CCC(n2c(=O)[nH]c3ccccc32)CC1 (stereo not given)
class name: -1

Input line: Quick check: does O=C1NC2C(=CC(O)C(O)C2O)c2cc3c(c(O)c21)OCO3 (stereo not given) have pIC50 greater than or equal to 5?
Output line: 1

Input line: Would you say CCCN1C/C(=C/c2cccc([N+](=O)[O-])c2)C(=O)/C(=C/c2cccc([N+](=O)[O-])c2)C1 shows pIC50 at minimum 5?
Output line: 1

Input line: Please check the record CCc1cccc(CC)c1NC(=S)NCCc1c(C)[nH]c2ccc(C)cc12 and state if its pIC50 is at or above 5.
Output line: -1

Input line: Entry COc1nc(N)c(C#N)c(-c2ccc(N(C)CCC#N)cc2)c1C#N : is its pIC50 no less than 5?
Output line: 1

* * *

# Test system: PEG-3
# method description: Peg3 promoter luciferase inhibitors, potency, dose response, cell-based, HeLa, CREF/GAPDH counter-screen panel (AID 624167)
# condition parameters: HeLa PEG-Prom luciferase reporter, overnight, CREF/GAPDH counter-screens, run 1, dose range 1, individual replicate IC50 per panel
assay readout: log10 of IC50 (log10 of the value in µM)
# values: log10(IC50), units µM

compound: CCN(C(=O)CSc1nc2n[nH]c(C)c2c(=N)n1-c1ccc(Cl)c(C)c1)c1cccc(C)c1
assay readout: log10 of IC50
measurement: 1.28

Input line: So what log10 of IC50 did CN(C)S(=O)(=O)c1cccc(NC(=O)CSc2cccc3cccnc23)c1 get with PEG-3?
Output line: 1.37

Input line: Short answer please: log10 of IC50, PEG-3, entry CCC1(c2ccccc2)NC(=O)N(CC(=O)Nc2cc(S(=O)(=O)N3CCCCCC3)ccc2OC)C1=O (stereo unspecified)
Output line: 1.14

Input line: Give the reported log10 of IC50 for COc1ccccc1CN(C)C(=O)c1cc(-c2cccs2)nc2ccccc12 (system: PEG-3).
Output line: 1.16
